meta.source: paper PMC6309453

Molecular target: GST-SND1 (NST3) (Arabidopsis thaliana) (UniProt Q9LPI7)
Sequence: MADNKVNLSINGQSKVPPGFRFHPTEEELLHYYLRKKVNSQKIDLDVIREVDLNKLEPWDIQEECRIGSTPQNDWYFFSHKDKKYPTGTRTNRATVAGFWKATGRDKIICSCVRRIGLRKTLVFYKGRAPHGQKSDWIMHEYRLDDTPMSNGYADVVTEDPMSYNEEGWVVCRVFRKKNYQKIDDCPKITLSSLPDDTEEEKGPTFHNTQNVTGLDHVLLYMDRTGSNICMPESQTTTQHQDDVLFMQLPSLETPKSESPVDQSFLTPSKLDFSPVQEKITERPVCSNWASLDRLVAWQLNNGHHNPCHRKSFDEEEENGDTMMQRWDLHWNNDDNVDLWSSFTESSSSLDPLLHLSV
Assay: EMSA
Details: 10 mM Tris pH 7.5, 50 mM KCl, 1 mM DTT, 2.5% glycerol, 5 mM MgCl2, 0.1% IGEPAL CA-630, 0.05 ug/ul calf thymus DNA, 150 ng protein, 30 min room temperature
Value Type: binding

{"Sequence Input": "GAAAGCTACTCTAAGTTATACAAATTCTAAAGAACTCAAAAGAATAACAAACAGTAGAAGTTGGAAGCTCAAGCAATTAAATTA (double strand) [CESA4Sha-D]", "binding": "no binding"}
{"Sequence Input": "GTTGGAAGCTCAAGCAATTAAATTATATAAAAACACTAACTACACTGAGCTGTCTCCTTCTTCCACCAAATCTTGTTGCTGTCTCTTGAAGCTTTCTTATGACAC (double strand) [CESA4Sha-E]", "binding": "binds"}
{"Sequence Input": "CCAGATTTGGTAAAGTTTATAAGATACAAAATATTAAGTAAGACTAAAGTAGAAATACATAATAACTTGAAAGCTACTCTAAGTTATACAAATTCTAAAGAACTCAAAAGAATAAC (double strand) [CESA4Bay-C]", "binding": "binds"}
{"Sequence Input": "GTTGGAAGCTCAAGCAATTAAATTATATAAAAACACTAACTACACTGAGCTGTCTCCTTCTTCCACCAAATCTTGTTGCTGTCTCTTGAAGCTTTCTTATGACAC (double strand) [CESA4Bay-E]", "binding": "binds"}

Note: attention shifts to another entry.
Note binding for the sequence shown: GAAAGCTACTCTAAGTTATACAAATTCTAAAGAACTCAAAAGAATAACAAACAGTAGAAGTTGGAAGCTCAAGCAATTAAATTA (double strand) [CESA4Bay-D]
no binding
